All figures here come from patent US20260176260A1.

- measurement-target: B-Raf kinase (Homo sapiens, UniProt P15056)
- Construct: purchased Sigma
- Sequence (P15056 416-766): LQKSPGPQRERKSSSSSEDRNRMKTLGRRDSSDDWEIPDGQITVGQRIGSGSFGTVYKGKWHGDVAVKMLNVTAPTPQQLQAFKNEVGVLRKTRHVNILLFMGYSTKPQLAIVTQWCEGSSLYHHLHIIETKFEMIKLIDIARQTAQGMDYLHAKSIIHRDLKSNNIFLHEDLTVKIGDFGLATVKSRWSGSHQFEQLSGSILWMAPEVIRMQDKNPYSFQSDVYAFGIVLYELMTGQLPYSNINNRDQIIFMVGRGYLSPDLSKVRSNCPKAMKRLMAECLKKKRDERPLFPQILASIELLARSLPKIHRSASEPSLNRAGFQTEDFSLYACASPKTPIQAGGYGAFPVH
- assay-method-text: Biochemical assay for B-Raf (coupled pyruvate kinase/lactate dehydrogenase)
- protocol-conditions: Table 1, inhibition of biochemical activity; read-out: BRAF
Catalogue of IC50 values

[
  {
    "compound": "CNC(=O)c1cc(-c2cc(-c3cc(NC(=O)c4cc(C(C)(F)F)cnn4)ccc3C)cc(N[C@H](C)CO)n2)ccn1 [Example 38]",
    "IC50": "< 100 nM"
  },
  {
    "compound": "CNC(=O)c1cc(-c2cc(-c3cc(NC(=O)c4cncc(C(C)(F)F)c4)ccc3C)cc(C)n2)ccn1 [Example 15]",
    "IC50": "100 to 500 nM"
  },
  {
    "compound": "CNC(=O)c1cc(-c2cc(-c3cc(NC(=O)c4cc(C(F)(F)F)cnn4)ccc3C)cc(N)n2)ccn1 [Example 48]",
    "IC50": "< 100 nM"
  },
  {
    "compound": "CNC(=O)c1cc(-c2cc(-c3cc(NC(=O)c4cc(C(F)(F)F)cnn4)ccc3C)cc(N[C@H](C)CO)n2)ccn1 [Example 29]",
    "IC50": "< 100 nM"
  },
  {
    "compound": "CNC(=O)c1cc(-c2cc(-c3cc(NC(=O)c4cc(C(F)(F)F)cnn4)ccc3C)cc(C)n2)ccn1 [Example 2]",
    "IC50": "100 to 500 nM"
  },
  {
    "compound": "CNC(=O)c1cc(-c2cc(-c3cc(NC(=O)c4cc(C#N)cnn4)ccc3C)cc(N[C@H](C)CO)n2)ccn1 [Example 50]",
    "IC50": "< 100 nM"
  },
  {
    "compound": "CNC(=O)c1cc(-c2cc(-c3cc(NC(=O)c4cnc(C(F)(F)F)nc4)ccc3C)ccn2)ccn1 [Example 41]",
    "IC50": "1000 to 10000 nM"
  },
  {
    "compound": "Cc1cc(-c2cc(NC(=O)c3cc(C(F)(F)F)cnn3)ccc2C)cc(-c2ccnc(C(N)=O)c2)n1 [Example 7]",
    "IC50": "100 to 500 nM"
  },
  {
    "compound": "CNC(=O)c1cc(-c2cncc(-c3cc(NC(=O)c4cc(C5CC5)cnn4)ccc3C)c2)ncn1 [Example 24]",
    "IC50": "< 100 nM"
  },
  {
    "compound": "CNC(=O)c1cc(-c2cc(-c3cc(NC(=O)c4cc(C(C)(F)F)cnn4)ccc3C)cc(NCCO)n2)ccn1 [Example 42]",
    "IC50": "< 100 nM"
  }
]

Query: Looking for the measured IC50 of CNC(=O)c1cc(-c2cncc(-c3cc(NC(=O)c4cc(C(F)(F)F)cnn4)ccc3C)c2)ncn1 [Example 17] , can you help?
Result: 100 to 500 nM

Query: Please look up its IC50: CCc1ccc(NC(=O)c2cc(C(F)(F)F)cnn2)cc1-c1ccnc(-c2ccnc(C(=O)NC)c2)c1 [Example 37]
Result: 1000 to 10000 nM

Query: What value of measured IC50 is listed for CNC(=O)c1cc(-c2cc(-c3cc(NC(=O)c4cc(C(F)(F)F)cnn4)ccc3C)nc(N[C@H](C)CO)n2)ccn1 [Example 25] ?
Result: < 100 nM

Query: Any idea what IC50 was measured for CNC(=O)c1cc(-c2cc(-c3cc(NC(=O)c4cc(Cl)cnn4)ccc3C)ccn2)ccn1 [Example 36] ?
Result: 100 to 500 nM
